# experiment: Pharmacokinetics after intravenous and oral administration in rats
# Assay type: in vivo
# run.parameters: rat, plasma, iv dosing, 2 mg/kg
# Procedure: The compounds disclosed herein are assessed in pharmacokinetic studies in mice, rats, dogs or monkeys. The compounds are administered as a water solution, 2% HPMC+1% TWEEN®80 in water solution, 5% DMSO+5% solutol in saline, 4% MC suspension or capsule. For the intravenous administration, the animals are generally given at 1 or 2 mg/kg dose. […] The plasma solutions are collected, stored at −20° C. or −70° C. until analyzed by LC/MS/MS as described above.
measure: log10 of half-life (log10 of the value in h)

{"sample.smiles": "Cc1c(C(=O)Nc2ccc(Oc3ccnc(N)c3)c(F)c2)c(=O)n(-c2ccccc2)n1C", "result.number": -0.14}
{"sample.smiles": "Cc1c(C(=O)Nc2cc(F)c(Oc3ccnc(N)c3Cl)cc2F)c(=O)n(-c2ccccc2)n1C", "result.number": 0.46}
{"sample.smiles": "Cc1c(C(=O)Nc2ccc(Oc3ccnc(N)c3)c(F)c2F)c(=O)n(-c2ccccc2)n1C", "result.number": -0.51}
{"sample.smiles": "Cc1c(C(=O)Nc2cc(F)c(Oc3ccnc(N)c3)cc2F)c(=O)n(-c2ccccc2)n1C", "result.number": -0.09}
{"sample.smiles": "Cc1c(C(=O)Nc2ccc(Oc3ccnc(N)c3)cc2F)c(=O)n(-c2ccccc2)n1C", "result.number": 1.07}
{"sample.smiles": "CC(=O)Nc1cc(Oc2ccc(NC(=O)c3c(C)n(C)n(-c4ccccc4)c3=O)nc2)ccn1", "result.number": 0.86}
{"sample.smiles": "Cc1c(C(=O)Nc2ccc(Oc3ccnc(N)c3Cl)cc2F)c(=O)n(-c2ccccc2)n1C", "result.number": 0.52}
{"sample.smiles": "CC(=O)Nc1cc(Oc2ccc(NC(=O)c3c(C)n(C)n(-c4ccccc4)c3=O)cc2F)ccn1", "result.number": 0.64}
{"sample.smiles": "Cc1c(C(=O)Nc2ccc(Oc3ccnc(N)c3)cc2Cl)c(=O)n(-c2ccccc2)n1C", "result.number": 0.19}
